Each recorded value in this set is attributed to patent US11986471B2.

- Test Target: PRMT5 (Homo sapiens, UniProt O14744)
- Construct: purchased Viva (custom protein)
- Sequence (O14744 whole entry): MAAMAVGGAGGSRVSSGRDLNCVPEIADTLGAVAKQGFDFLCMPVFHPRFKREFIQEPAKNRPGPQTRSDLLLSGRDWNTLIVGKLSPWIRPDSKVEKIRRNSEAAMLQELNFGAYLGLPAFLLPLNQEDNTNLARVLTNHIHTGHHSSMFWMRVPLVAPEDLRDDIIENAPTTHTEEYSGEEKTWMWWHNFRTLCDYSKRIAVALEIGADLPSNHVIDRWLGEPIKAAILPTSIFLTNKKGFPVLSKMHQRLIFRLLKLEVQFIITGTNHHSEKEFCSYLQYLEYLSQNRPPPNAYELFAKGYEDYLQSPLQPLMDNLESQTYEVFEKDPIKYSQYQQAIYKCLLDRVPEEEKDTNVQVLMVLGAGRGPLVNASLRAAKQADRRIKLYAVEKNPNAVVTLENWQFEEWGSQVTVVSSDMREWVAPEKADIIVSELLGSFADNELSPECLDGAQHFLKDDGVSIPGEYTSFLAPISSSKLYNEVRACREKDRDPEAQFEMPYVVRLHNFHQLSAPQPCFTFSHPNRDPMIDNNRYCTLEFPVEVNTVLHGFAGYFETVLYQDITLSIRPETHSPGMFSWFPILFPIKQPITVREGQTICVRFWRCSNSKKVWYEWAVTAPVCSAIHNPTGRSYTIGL
- Sequence (Q9BQA1 whole entry partner): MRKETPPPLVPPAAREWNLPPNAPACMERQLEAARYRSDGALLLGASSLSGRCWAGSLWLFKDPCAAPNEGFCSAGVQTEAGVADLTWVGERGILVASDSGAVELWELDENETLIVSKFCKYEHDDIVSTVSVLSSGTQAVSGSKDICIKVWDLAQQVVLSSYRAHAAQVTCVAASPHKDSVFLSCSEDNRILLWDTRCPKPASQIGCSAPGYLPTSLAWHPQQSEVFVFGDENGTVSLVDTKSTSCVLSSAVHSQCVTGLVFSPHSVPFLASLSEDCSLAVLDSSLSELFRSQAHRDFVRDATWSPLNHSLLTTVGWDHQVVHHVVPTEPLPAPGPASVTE
- Method Summary: PRMT5 IC50 assay in the presence of SAM as cofactor
- Assay type: biochemical
- Description: Table 1a indicates IC50 values (μM) against PRMT5 for exemplary compounds in the presence of SAM as cofactor, with no cofactor and with MTA as cofactor, respectively (columns 3-5). […] The Ki values can be calculated from the IC50 values as described in the Examples section. As detailed in the Examples section, for the assay performed in the presence of SAM, IC50=Ki×1.5 (Ki=IC50/1.5). For the assay performed in the presence of MTA, IC50=Ki×13.5 (Ki=IC50/13.5). […]
pIC50: −log10 of the molar value.
Measured pIC50 by item
Readout Label: pIC50

1. Cc1ncoc1COc1ccc2c(c1C)CCN(C[C@@H](O)CNC(=O)c1cc(NC3CCC3)nc(N3CCN(C(=O)C(C)C)CC3)c1)C2: 6.30 to 7.30
2. CC(=O)N1CC(Nc2cc(C(=O)NC[C@H](O)CN3CCc4c(ccc(OCc5cnco5)c4C)C3)ncn2)C1: 5.30 to 6.30
3. CC(=O)N1CCC(Nc2cc(C(=O)NC[C@H](O)CN3CCc4cc(OCc5ocnc5C)ccc4C3)cc(N(C)C)n2)CC1: 6.30 to 7.30
4. O=C(NC[C@H](O)CN1CCc2cc(OCc3cnco3)ccc2C1)c1cc(NC2COC2)nc(N2CCCCC2)n1: 6.30 to 7.30
5. Cc1c(OCc2cnco2)ccc2c1CCN(C[C@@H](O)CNC(=O)c1cc(N[C@H]3C[C@H](C(=O)N4CCC4)C3)ncn1)C2: 5.30 to 6.30
6. O=C(NC[C@H](O)CN1CCc2c(ccc(OCc3cn[nH]c3)c2Cl)C1)c1ccnc(NC2CCC2)c1: 6.30 to 7.30
7. CC(=O)N1CC2CC1CC2Nc1cc(C(=O)NC[C@H](O)CN2CCc3cc(OCc4ocnc4C)ccc3C2)ncn1 (stereo partly shown): 6.30 to 7.30

###

- Test Target: PRMT5 (Homo sapiens, UniProt O14744)
- Construct: purchased Viva (custom protein)
- Method Summary: PRMT5 IC50 assay with no cofactor
- Type: biochemical
- Reported Conditions: read-out: No Co-factor IC50
Measured IC50, listed per entry.
Readout Label: IC50

1. O=C(NC[C@H](O)CN1CCc2c(ccc(OCc3cnco3)c2Cl)C1)c1ccnc(NC2CCCC(F)(F)C2)c1 (stereo partly drawn) [Compound 347]: ≥ 5 µM
2. CC(=O)N1CCC(Nc2cc(C(=O)NC[C@H](O)CN3CCc4cc(OCc5ocnc5C)ccc4C3)cc(N3CCCCC3)c2)CC1 (single isomer, unassigned) [Compound 631]: ≥ 5 µM
3. Cc1ncoc1COc1ccc2c(c1)CCN(C[C@@H](O)CNC(=O)c1ccc(OC3CCN(Cc4ccccc4)CC3)cc1)C2 [Compound 392]: 0.5 to 5 µM
4. O=C(NC[C@H](O)CN1CCc2cc(OCc3cnco3)ccc2C1)c1cc(NC2CCC2)nc(N2CCN(C(=O)C3CC3)CC2)c1 [Compound 378]: 0.5 to 5 µM
5. Cc1ncoc1COc1ccc2c(c1)CCN(C[C@@H](O)CNC(=O)c1cc(NC3CCC3)ncn1)C2 [Compound 374]: ≥ 5 µM
6. Cc1c(OCc2cnco2)ccc2c1CCN(C[C@@H](O)CNC(=O)c1ccnc(NC3CCN(S(C)(=O)=O)CC3)c1)C2 [Compound 386]: 0.5 to 5 µM
7. CC(=O)N1CC[C@H](Nc2cc(C(=O)NC[C@H](O)CN3CCc4cc(OCc5ocnc5C)ccc4C3)ccn2)C[C@H]1C [Compound 644]: 0.5 to 5 µM
8. Cc1c(OCc2cnco2)ccc2c1CCN(C[C@@H](O)CNC(=O)c1ccnc(NC3CCN(C(=O)C(C)(C)C)CC3)c1)C2 [Compound 402]: 0.5 to 5 µM
9. CC(=O)N1CCC(Nc2cc(C(=O)NC[C@H](O)CN3CCc4cc(OCc5ocnc5C)ccc4C3)ncn2)CC1 [Compound 219]: ≥ 5 µM
10. Cc1ncoc1COc1ccc2c(c1C)CCN(C[C@@H](O)CNC(=O)c1ccnc(NC3CCCC3)c1)C2 [Compound 418]: ≥ 5 µM
11. CC(=O)N1CCC(Nc2cc(C(=O)NC[C@@H](O)CN3CCc4cc(OCc5ocnc5C)ccc4C3)ncn2)CC1 [Compound 249]: ≥ 5 µM
12. CC(=O)N1CC(Nc2cc(C(=O)NC[C@H](O)CN3CCc4cc(OCc5ocnc5C)c(F)cc4C3)cc(N3CCCCC3)n2)C1 [Compound 638]: 0.05 to 0.5 µM
13. O=C(NC[C@H](O)CN1CCc2cc(OCc3cnco3)ccc2C1)c1cc(NC2CCC2)nc(N2CCOCC2)c1 [Compound 292]: 0.5 to 5 µM
14. Cc1cc(OCc2cnco2)cc2c1CN(C[C@@H](O)CNC(=O)c1ccnc(NC3CCC3)c1)CC2 [Compound 260]: ≥ 5 µM
15. Cc1ncoc1COc1ccc2c(c1)CCN(C[C@@H](O)CNC(=O)c1cc(NC3CCC3)nc(N3CCCCC3)c1)C2 [Compound 633]: ≥ 5 µM
16. CCCN(C)c1nc(NC2COC2)cc(C(=O)NC[C@H](O)CN2CCc3cc(OCc4cnco4)ccc3C2)n1 [Compound 294]: 0.5 to 5 µM
17. Cc1ncoc1COc1ccc2c(c1C)CCN(C[C@@H](O)CNC(=O)c1cc(NC3COC3)nc(N3CCN(C(=O)C4CC4)CC3)n1)C2 [Compound 414]: ≥ 5 µM
18. O=C(NC[C@H](O)CN1CCc2c(ccc(OCc3cnco3)c2Br)C1)c1cc(NC2CCCCC2)ncn1 [Compound 377]: ≥ 5 µM
19. O=C(NC[C@H](O)CN1CCc2cc(OCc3cnco3)ccc2C1)c1cc(NC2CCC2)nc(N2CCNCC2)c1 [Compound 422]: 0.5 to 5 µM
20. Cc1ncoc1COc1ccc2c(c1Br)CCN(C[C@@H](O)CNC(=O)c1ccnc(NC3CCCC3)c1)C2 [Compound 350]: ≥ 5 µM
21. Cc1ncoc1COc1ccc2c(c1Cl)CCN(C[C@@H](O)CNC(=O)c1ccnc(NC3CCC3)c1)C2 [Compound 252]: ≥ 5 µM
22. O=C(NC[C@H](O)CN1CCc2cc(OCc3cnco3)ccc2C1)c1cc(NC2CCCC2)ncn1 [Compound 372]: ≥ 5 µM
23. CC(=O)N1CCC(Nc2cc(C(=O)NC[C@H](O)CN3CCc4c(C)c(OCc5ocnc5C)cc(F)c4C3)ccn2)CC1 [Compound 642]: 0.5 to 5 µM
24. CC(=O)N1CCC(Nc2cc(C(=O)NC[C@H](O)CN3CCc4nc(OCc5cnco5)ccc4C3)ncn2)CC1 [Compound 412]: ≥ 5 µM
25. CC(=O)N1CCC(Nc2cc(C(=O)NC[C@H](O)CN3CCc4cc(OCc5cnnn5C)ccc4C3)ncn2)CC1 [Compound 250]: ≥ 5 µM
26. Cc1ncoc1COc1ccc2c(c1)CCN(C[C@@H](O)CNC(=O)c1cc(NC3CCC3)nc(N3CCN(C(C)(C)C)CC3)c1)C2 [Compound 403]: 0.5 to 5 µM
27. CC(=O)N1CC(Nc2cc(C(=O)NCC(O)CN3CCc4c(C)c(OCc5ocnc5C)cc(F)c4C3)nc(N3CCCCC3)n2)C1 (stereo not drawn) [Compound 651]: 0.5 to 5 µM
